- targetSystem: human GPBAR1 (Homo sapiens, UniProt Q8TDU6)
- Sequence (Q8TDU6 whole entry): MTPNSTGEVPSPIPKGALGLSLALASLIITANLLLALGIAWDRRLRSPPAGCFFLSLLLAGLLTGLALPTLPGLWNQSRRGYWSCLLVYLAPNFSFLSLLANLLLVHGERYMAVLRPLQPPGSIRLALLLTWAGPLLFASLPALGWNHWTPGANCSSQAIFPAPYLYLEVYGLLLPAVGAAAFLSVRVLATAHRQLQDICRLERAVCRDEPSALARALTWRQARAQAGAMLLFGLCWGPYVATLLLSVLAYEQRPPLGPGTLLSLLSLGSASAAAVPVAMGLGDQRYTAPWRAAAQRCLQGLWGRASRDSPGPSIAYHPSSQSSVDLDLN
- procedureDetails: GPBAR1-mediated transactivation, CRE-luciferase reporter in HEK-293T cells
- experimentalParameters: dose-response 0.1-75 µM, read-out: GPBAR1 ECso
- Method: In this table, the activities of the compounds are compared with specific reference compounds, namely CDCA for FXR, TLCA for TGR5/GPBAR1, MK571 for CysLT1R. […] Eighteen hours after stimulation, the cell lysates were used to assess Luciferase and Renilla activity by means of the Dual-Luciferase Reporter assay (E1980, Promega Madison WI). The luminescence was measured using the Glomax 20/20 luminometer (Promega, Madison WI) and the Luciferase activity was normalised with the Renilla activity.
measurementKind: pEC50
Scale note: pEC50 = -log10(concentration in M).

Q: Retrieve pEC50 measured for `O=C(O)c1cccc(-c2ccc(OCc3ccc4ccccc4n3)cc2)c1` and print it.
A: 5.34
